Target: Nuclear receptor subfamily 1 group I member 3 (Homo sapiens)
Assay: qHTS assay to identify small molecule antagonists of the constitutive androstane receptor (CAR) signaling pathway (AID 1224838);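 note: HepG2 cells stably expressing hCAR with CYP2B6 luciferase reporter stimulated by CITCO; nearly all actives have a fitted effect of over 40% in size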
Conditions: HepG2-CYP2B6-hCAR luciferase, CITCO-stimulated, 24 h; series mostly up to 92.4 µM
Records with an inconclusive call do not appear. Active and inactive are the calls of the source. Calls come from the whole dose curve; as a rule, active = well fitted inhibition curve with a large enough effect in the repeat runs; inconclusive = weak or mixed curves, or effect the other way; inactive = no such curve, though single readings can be large or run the other way.
Classes used: active, inactive

>>> answer_label("CO/N=C1\\CN(c2nc3c(cc2F)c(=O)c(C(=O)O)cn3C2CC2)CC1CN (centres undefined)")
"inactive"
>>> answer_label("CC(C)OCC1CO1 (centres undefined)")
"inactive"
>>> answer_label("CCOC(=N)CC(=O)OCC")
"inactive"
>>> answer_label("Cc1cc2nc3ccc(=[N+](C)C)cc-3sc2cc1N")
"inactive"
>>> answer_label("CCCCC(CC)COC(=O)COc1ccc(Cl)cc1C (centres undefined)")
"inactive"
>>> answer_label("CO[C@@]12[C@H](COC(N)=O)C3=C(C(=O)C(C)=C(N)C3=O)N1C[C@@H]1N[C@@H]12")
"active"
>>> answer_label("CCCCC(CC)CNCC(CC)CCCC (centres undefined)")
"inactive"
>>> answer_label("CSc1ccc(Oc2ccc(S(N)(=O)=O)cc2CN(C)C)cc1C")
"inactive"
>>> answer_label("CC(C)c1nnc2ccc(-c3ocnc3-c3cc(F)ccc3F)cn12")
"inactive"
>>> answer_label("COc1cc2c(N3CCN(C(=O)Nc4ccc(OC(C)C)cc4)CC3)ncnc2cc1OCCCN1CCCCC1")
"active"
>>> answer_label("CCCOc1ccc(S(=O)(=O)N2CCN(CC)CC2)cc1-c1nc2c(CC)n(Cc3ccccn3)nc2c(=O)[nH]1")
"inactive"
>>> answer_label("CCCCC(CC)C(=O)OCCOCCOCCOCCOC(=O)C(CC)CCCC (centres undefined)")
"inactive"
>>> answer_label("CC1CC(O)CC(C)(C)C1 (centres undefined)")
"inactive"
>>> answer_label("C[N+]1(C)CCC(=C(c2ccccc2)c2ccccc2)CC1")
"inactive"
>>> answer_label("NC(=O)Nc1ccc(Cl)cc1")
"inactive"
>>> answer_label("NC(=O)Nc1ccc(Cl)c(Cl)c1")
"inactive"
>>> answer_label("CCCCCCCCCOC(C)=O")
"inactive"
>>> answer_label("O=C(O)C(Cc1cc(I)c(O)c(I)c1)c1ccccc1 (centres undefined)")
"inactive"
>>> answer_label("CC1CC(=O)NN=C1c1ccc(NCC(C)(C)NCC(O)COc2cc(Cl)ccc2C#N)cc1 (centres undefined)")
"inactive"
>>> answer_label("C=CC(C)(O)CCCC(C)CCCC(C)CCCC(C)C (centres undefined)")
"inactive"
>>> answer_label("O=C(c1ccc(O)cc1)c1ccc(Cl)cc1")
"inactive"
>>> answer_label("CN1Cc2cc(C(=O)N3CCC(C4CCNCC4)CC3)ccc2N[C@@H](CC(=O)O)C1=O")
"inactive"
>>> answer_label("COc1ccc(C(=O)c2cccc(O)c2)c(OC)c1")
"inactive"
>>> answer_label("Cc1cc(O)c2c(O)c3c(O)cccc3cc2c1")
"inactive"
>>> answer_label("CCNC(=O)N1CCN(CCCC(c2ccc(F)cc2)c2ccc(F)cc2)CC1")
"inactive"
>>> answer_label("CCCOC(=O)c1ccc(C(=O)OCCC)nc1")
"inactive"
>>> answer_label("c1ccc(COCc2ccccc2)cc1")
"inactive"
>>> answer_label("CCCOCCOCCO")
"inactive"
>>> answer_label("COC(OC)(C(=O)c1ccccc1)c1ccccc1")
"inactive"
>>> answer_label("CC(C)(CCl)c1ccccc1")
"inactive"
>>> answer_label("N#C/C(=C1/SC[C@@H](c2ccc(Cl)cc2Cl)S1)n1ccnc1")
"inactive"
>>> answer_label("CC(=O)CC(c1ccc([N+](=O)[O-])cc1)c1c(O)c2ccccc2oc1=O (centres undefined)")
"inactive"
>>> answer_label("O=C(CS)OCCOC(=O)CS")
"inactive"
>>> answer_label("O=C(O)c1cccc(O)c1")
"inactive"
>>> answer_label("Cc1ccc(/C=N/n2c(-c3ccccc3)csc2=S)cc1")
"inactive"
>>> answer_label("CC(=O)Nc1ccccc1C")
"inactive"
>>> answer_label("CCOC(=O)c1ccccc1C")
"inactive"
>>> answer_label("CCc1c2c(nc3ccc(OC(=O)N4CCC(N5CCCCC5)CC4)cc13)-c1cc3c(c(=O)n1C2)COC(=O)[C@]3(O)CC")
"active"
>>> answer_label("CCCCC1C(=O)N(c2ccccc2)N(c2ccc(O)cc2)C1=O (centres undefined)")
"active"
>>> answer_label("CC(C)(C)C(=O)O")
"inactive"
>>> answer_label("CCC(=O)OC/C=C/c1ccccc1")
"inactive"
>>> answer_label("CN(C)CCOC1=Cc2ccccc2Sc2ccc(Cl)cc21")
"inactive"
>>> answer_label("OCC1CC=CCC1 (centres undefined)")
"inactive"
>>> answer_label("c1cc[c]([Bi]([c]2ccccc2)[c]2ccccc2)cc1")
"inactive"
>>> answer_label("CN1C(=O)CC(C)(c2ccccc2)C1=O (centres undefined)")
"inactive"
>>> answer_label("C=CC(C)(C)CC(=O)OC")
"active"
>>> answer_label("COc1cc2ncnc(Nc3ccc(F)c(Cl)c3)c2cc1OCCCN1CCOCC1")
"inactive"
>>> answer_label("COc1cc2[nH]c(=O)[nH]c(=O)c2cc1OC")
"inactive"
>>> answer_label("OC/C(Br)=C(\\Br)CO")
"inactive"
>>> answer_label("C=CC(=C)CCCC(C)(C)OC(C)=O")
"inactive"
>>> answer_label("O=C(O)c1c(O)c(-c2ccccc2)nc2ccccc12")
"inactive"
>>> answer_label("CCCCCCCCSCCO")
"inactive"
>>> answer_label("CCN(CC)CCNC(=O)c1ccc(NC(C)=O)cc1")
"inactive"
>>> answer_label("O=C(O)c1ccc(CO)o1")
"inactive"
